# Tested on: OCI-AML2
# experimental.details: cell viability relative to vehicle control; higher = less cytotoxic;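 note: after 48 h exposure read by CellTiter-Glo luminescence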
# reported.conditions: 10 µM; SRSF2 genotype: P95H/wt
Reported cell viability values for a set of compounds

{"columns": ["compound", "study.system", "readout.units", "cell viability"],
 "data": [
  ["CCOC(=O)C=P(c1ccccc1)(c1ccccc1)c1ccccc1 [Ethyl (triphenylphosphoranylidene) acetate]", "OCI-AML2", "%", 90.2],
  ["Cc1cc(Nc2ncnc3ccc(-c4ccc(CNCCS(C)(=O)=O)o4)cc23)ccc1Oc1ccn2ncnc2c1", "OCI-AML2", "%", 95.7],
  ["CC(C)(CO)c1cc2cc(NC(=O)C3(c4ccc5c(c4)OC(F)(F)O5)CC3)c(F)cc2n1C[C@@H](O)CO", "OCI-AML2", "%", 95.7],
  ["CC(C)C[C@H](NC(=O)CNC(=O)c1cc(Cl)ccc1Cl)B(O)O", "OCI-AML2", "%", 0.44],
  ["CC1(C)[C@@H](O[C@H]2O[C@H](C(=O)O)[C@@H](O)[C@H](O)[C@H]2O[C@@H]2O[C@H](C(=O)O)[C@@H](O)[C@H](O)[C@H]2O)CC[C@]2(C)[C@H]3C(=O)C=C4[C@@H]5C[C@@](C)(C(=O)O)CC[C@]5(C)CC[C@@]4(C)[C@]3(C)CC[C@@H]12 [Ammonium Glycyrrhizate]", "OCI-AML2", "%", 106],
  ["CC(C)(C)C#Cc1cc(N(C(=O)[C@H]2CC[C@H](C)CC2)[C@H]2CC[C@H](O)CC2)c(C(=O)O)s1", "OCI-AML2", "%", 124],
  ["NC(=O)c1cccc(N)c1 [INO-1001 (3-Aminobenzamide)]", "OCI-AML2", "%", 94.7],
  ["C[C@@](Cc1ccc(O)c(O)c1)(NN)C(=O)O", "OCI-AML2", "%", 93.9],
  ["C1=N/C2=N/c3ccc(OCCN4CCCC4)c(c3)COC/C=C/COCc3cccc(c3)C(=C1)N2 [Pacritinib (SB1518)]", "OCI-AML2", "%", 0.2],
  ["Nc1ncnc2c1ncn2[C@@H]1O[C@H](CO)[C@@H](O)[C@H]1O", "OCI-AML2", "%", 102],
  ["CO/N=C(\\C(=O)N[C@@H]1C(=O)N2C(C(=O)OC(C)OC(C)=O)=C(COC(N)=O)CS[C@H]12)c1ccco1 (stereo partly drawn)", "OCI-AML2", "%", 111],
  ["C=CC(=O)Nc1cc(N2CCN(CC)CC2)ccc1Nc1cc(N(C)C(=O)Nc2c(Cl)c(OC)cc(OC)c2Cl)ncn1", "OCI-AML2", "%", 1.37],
  ["Cn1nnc(-c2ccc(-c3ccc(N4C[C@H](CO)OC4=O)cc3F)cn2)n1", "OCI-AML2", "%", 79.9],
  ["O=c1cc(-c2ccccc2)oc2c1ccc1ccccc12", "OCI-AML2", "%", 86.5],
  ["Cc1cc(O)cc(O)c1", "OCI-AML2", "%", 98.7],
  ["CC(C)(O)CNc1ncc(-c2ccnc(Nc3ccnc(Cl)c3)n2)c(CC2CC2)n1", "OCI-AML2", "%", 5.49],
  ["CC(O)c1ccc(S(=O)(=O)NC(=O)NC2CCCCC2)cc1 (stereo not drawn) [Hydroxyhexamide]", "OCI-AML2", "%", 104],
  ["NC(=O)c1cnc(NCCc2ccc(O)c(Cl)c2)nc1NCc1ccccc1", "OCI-AML2", "%", 8.8],
  ["O=C(O)C(Cc1ccccc1[N+](=O)[O-])=NNc1nc(-c2ccc(Cl)c(Cl)c2)cs1", "OCI-AML2", "%", 84.8],
  ["Cc1ccc(CN(CC(O)COc2cccc3[nH]ccc23)C(C)(C)C)cc1 (stereo not drawn)", "OCI-AML2", "%", 83.4],
  ["COC(=O)C=Cc1ccc(O)cc1 [Methyl 4-hydroxycinnamate]", "OCI-AML2", "%", 105],
  ["Nc1ncnc2c1ncn2C(C=O)OC(C=O)CO (stereo not drawn)", "OCI-AML2", "%", 40.4],
  ["N#CC(=Cc1ccc(-c2cc(Cl)ccc2Cl)o1)C(=O)Nc1cccc2ncccc12", "OCI-AML2", "%", 88.3],
  ["CCCc1cc(C(N)=S)ccn1 [Protionamide (Prothionamide)]", "OCI-AML2", "%", 100],
  ["COc1ccc(Cl)cc1NC(=O)Nc1cc(C)nc2ccccc12", "OCI-AML2", "%", 82.7],
  ["COc1ccc2cccc(CCNC(C)=O)c2c1", "OCI-AML2", "%", 101],
  ["Cc1cc(N2CCOCC2)cc2[nH]c(-c3c(NCC(O)c4cccc(Cl)c4)cc[nH]c3=O)nc12 (stereo not drawn)", "OCI-AML2", "%", 7.45],
  ["COc1cc2c(cc1O)[C@@H](Cc1ccc(O)c(Oc3ccc(C[C@@H]4c5cc(OC)c(OC)cc5CCN4C)cc3)c1)N(C)CC2", "OCI-AML2", "%", 1.65],
  ["O[C@H]1[C@H]2c3cc4c(cc3CN3CCC(=C[C@@H]1O)[C@H]23)OCO4", "OCI-AML2", "%", 0.46],
  ["CC1=NN(c2ccccc2)C(=O)C1", "OCI-AML2", "%", 116],
  ["Cc1cc(O)c2c(c1)C(=O)c1cccc(O)c1C2=O", "OCI-AML2", "%", 89.2],
  ["Cc1cc(=O)c2c(O)c3c(cc2o1)OC(C)(C)[C@@H](O[C@@H]1O[C@H](CO)[C@@H](O)[C@H](O)[C@H]1O)C3", "OCI-AML2", "%", 94],
  ["Nc1cccc(S(=O)(=O)N2CCCN(S(=O)(=O)c3ccc4c(c3)OCCO4)CC2)c1", "OCI-AML2", "%", 101]
]}

###

Known cell viability of a selection of molecules
# Test system: K562
# experimental.details: cell viability relative to vehicle control; higher = less cytotoxic
# reported.conditions: 10 µM; SRSF2 genotype: SRSF2 wt/wt
Counter-ions that a name gives are not always drawn.

{"columns": ["molecule", "readout.units", "cell viability"],
 "data": [
  ["OCc1c[nH]c2ccccc12 [Indole-3-carbinol]", "%", 99.8],
  ["O=S(=O)(O)Oc1ccc(C(c2ccc(OS(=O)(=O)O)cc2)c2ccccn2)cc1 [Sodium Picosulfate]", "%", 108],
  ["CCc1ccc(/C=C2/SC(=S)NC2=O)cc1", "%", 102],
  ["COc1ccccc1N1CCN(CCN2C(=O)CC3(CCCC3)CC2=O)CC1 [BMY 7378 Dihydrochloride]", "%", 91.1],
  ["CN1CCN(c2c(F)cc3c(=O)c(C(=O)O)cn4c3c2OCN4C)CC1 [Marbofloxacin]", "%", 105],
  ["COc1cc(/C=C/C(=O)N2CCN(CC(=O)N3CCCC3)CC2)cc(OC)c1OC [Cinepazide maleate]", "%", 99.2]
]}

###

# System: OCI-AML2
# experimental.details: cell viability relative to vehicle control; higher = less cytotoxic
# reported.conditions: 10 µM; SRSF2 genotype: P95H/wt

{"columns": ["compound", "cell viability (%)"],
 "data": [
  ["C[C@@H]1[C@H]2c3cc4c(cc3O[C@@]35OCOC3=CC(=O)[C@H](C[C@H]1C)[C@@H]25)OCO4", 87.6],
  ["O=C1C[C@@H](c2ccc(O)cc2)Oc2cc(O)cc(O)c21", 96.5],
  ["O=C(NCCCNc1nc(Nc2cccc(NC(=O)N3CCCC3)c2)ncc1I)c1cccs1", 12.4],
  ["OCc1cc(C(O)CNCCCCCCOCCCCc2ccccc2)ccc1O (configuration not stated)", 55.2],
  ["CCCNC(=O)c1cn2ncnc(Nc3cc(C(=O)NC4CC4)ccc3C)c2c1C", 91.3],
  ["N#C/C(=C(/N)Sc1ccc(N)cc1)c1ccccc1C(F)(F)F", 67.7],
  ["OC[C@H]1O[C@@](CO)(OC[C@@]2(O[C@H]3O[C@H](CO)[C@@H](O)[C@H](O)[C@H]3O)O[C@H](CO)[C@@H](O)[C@@H]2O)[C@@H](O)[C@@H]1O", 106],
  ["CNC[C@H](O)[C@@H](O)[C@H](O)[C@H](O)CO", 112],
  ["Cc1ccc(-n2[nH]c(C)c(N=Nc3cccc(-c4cccc(C(=O)O)c4)c3O)c2=O)cc1C [Eltrombopag]", 68.8],
  ["C/C1=C\\CC[C@]23O[C@H]2[C@@H](OC3=O)c2c(C)coc2C1", 103],
  ["CCCCCCCCCCCCCCCC(=O)OCC [Ethyl palmitate]", 98],
  ["Cc1ccc(C(=O)N(CCCN)[C@@H](c2oc3cc(Cl)ccc3c(=O)c2Cc2ccccc2)C(C)C)cc1", 0.35],
  ["COc1ccc(C[C@@H]2c3cc(Oc4cc(C[C@@H]5c6cc(OC)c(OC)cc6CCN5C)ccc4O)c(OC)cc3CCN2C)cc1", 102],
  ["O=C(Nc1cc(C(F)(F)F)cc(C(F)(F)F)c1)c1cc(Cl)ccc1O", 2.4],
  ["Cc1cc([C@@H](C)Nc2ccccc2C(=O)O)c2nc(N3CCOCC3)cc(=O)n2c1", 49.8],
  ["CC1(C)CC[C@]2(C)CC[C@]3(C)C(=CC[C@@H]4[C@@]5(C)CC[C@@H](O)[C@](C)(C(=O)O)[C@@H]5CC[C@]43C)[C@@H]2C1", 94.4],
  ["C=CC(=O)Nc1cccc(C)c1Nc1ncc2cc(-c3c(Cl)c(OC)cc(OC)c3Cl)ccc2n1", 6.53]
]}

The origin of these recorded values is the supplement of paper PMC10981050.
